The reported measurements were obtained from ChEMBL document CHEMBL5584244.

# TARGET_ENTITY: Histone deacetylase 7 (Homo sapiens, UniProt Q8WUI4)
# Sequence (Q8WUI4 whole entry): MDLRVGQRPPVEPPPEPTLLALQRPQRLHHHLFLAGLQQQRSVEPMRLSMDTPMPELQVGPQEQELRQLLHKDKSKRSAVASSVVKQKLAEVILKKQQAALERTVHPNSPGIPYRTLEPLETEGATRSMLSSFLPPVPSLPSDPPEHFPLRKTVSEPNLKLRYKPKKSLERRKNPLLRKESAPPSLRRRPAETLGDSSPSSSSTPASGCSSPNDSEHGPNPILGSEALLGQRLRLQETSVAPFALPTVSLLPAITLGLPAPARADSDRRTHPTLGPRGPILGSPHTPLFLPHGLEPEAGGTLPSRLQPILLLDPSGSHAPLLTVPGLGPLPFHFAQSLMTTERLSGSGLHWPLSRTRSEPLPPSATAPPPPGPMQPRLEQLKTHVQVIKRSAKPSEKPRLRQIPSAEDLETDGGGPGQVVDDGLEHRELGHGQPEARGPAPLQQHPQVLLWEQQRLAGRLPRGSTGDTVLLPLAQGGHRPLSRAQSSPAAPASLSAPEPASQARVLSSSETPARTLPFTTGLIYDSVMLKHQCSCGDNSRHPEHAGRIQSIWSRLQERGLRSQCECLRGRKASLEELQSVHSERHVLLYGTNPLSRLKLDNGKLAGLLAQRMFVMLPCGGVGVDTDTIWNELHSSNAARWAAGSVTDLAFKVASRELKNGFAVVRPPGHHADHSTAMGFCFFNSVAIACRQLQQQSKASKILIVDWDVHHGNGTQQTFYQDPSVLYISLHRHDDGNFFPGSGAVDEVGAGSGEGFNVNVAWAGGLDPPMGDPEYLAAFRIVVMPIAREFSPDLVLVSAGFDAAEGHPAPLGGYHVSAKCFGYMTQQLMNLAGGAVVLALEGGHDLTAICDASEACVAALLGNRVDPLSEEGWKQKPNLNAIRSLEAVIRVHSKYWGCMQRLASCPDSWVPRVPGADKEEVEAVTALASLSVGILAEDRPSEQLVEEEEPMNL
# EXPERIMENT: Inhibition of N-terminal GST-tagged recombinant human HDAC7 (518 to end residues) expressed in baculovirus expression system using Boc-Lys (Tfa)-AMC as substrate incubated for 120 mins by fluorescence analysis
RECORDED_METRIC: IC50 (µM)

A. O=C(CCCCCN1C(=O)[C@@H]2CCCN2Cc2ccccc21)NO
B. CC(=O)O.O=C(NO)c1ccc(CN2C(=O)[C@@H]3CCCN3Cc3ccccc32)cc1
Please indicate which has the smaller reported IC50: A , or B . Give the label under which the chosen entry appears.
B
(B: 0.00894 µM, A: 0.731 µM)
